SYSTEM: WT hSLACK (Homo sapiens, UniProt Q5JUK3)
Construct: host or cells: CHO-K1
Sequence (Q5JUK3 1-1235 isoform Q5JUK3-3): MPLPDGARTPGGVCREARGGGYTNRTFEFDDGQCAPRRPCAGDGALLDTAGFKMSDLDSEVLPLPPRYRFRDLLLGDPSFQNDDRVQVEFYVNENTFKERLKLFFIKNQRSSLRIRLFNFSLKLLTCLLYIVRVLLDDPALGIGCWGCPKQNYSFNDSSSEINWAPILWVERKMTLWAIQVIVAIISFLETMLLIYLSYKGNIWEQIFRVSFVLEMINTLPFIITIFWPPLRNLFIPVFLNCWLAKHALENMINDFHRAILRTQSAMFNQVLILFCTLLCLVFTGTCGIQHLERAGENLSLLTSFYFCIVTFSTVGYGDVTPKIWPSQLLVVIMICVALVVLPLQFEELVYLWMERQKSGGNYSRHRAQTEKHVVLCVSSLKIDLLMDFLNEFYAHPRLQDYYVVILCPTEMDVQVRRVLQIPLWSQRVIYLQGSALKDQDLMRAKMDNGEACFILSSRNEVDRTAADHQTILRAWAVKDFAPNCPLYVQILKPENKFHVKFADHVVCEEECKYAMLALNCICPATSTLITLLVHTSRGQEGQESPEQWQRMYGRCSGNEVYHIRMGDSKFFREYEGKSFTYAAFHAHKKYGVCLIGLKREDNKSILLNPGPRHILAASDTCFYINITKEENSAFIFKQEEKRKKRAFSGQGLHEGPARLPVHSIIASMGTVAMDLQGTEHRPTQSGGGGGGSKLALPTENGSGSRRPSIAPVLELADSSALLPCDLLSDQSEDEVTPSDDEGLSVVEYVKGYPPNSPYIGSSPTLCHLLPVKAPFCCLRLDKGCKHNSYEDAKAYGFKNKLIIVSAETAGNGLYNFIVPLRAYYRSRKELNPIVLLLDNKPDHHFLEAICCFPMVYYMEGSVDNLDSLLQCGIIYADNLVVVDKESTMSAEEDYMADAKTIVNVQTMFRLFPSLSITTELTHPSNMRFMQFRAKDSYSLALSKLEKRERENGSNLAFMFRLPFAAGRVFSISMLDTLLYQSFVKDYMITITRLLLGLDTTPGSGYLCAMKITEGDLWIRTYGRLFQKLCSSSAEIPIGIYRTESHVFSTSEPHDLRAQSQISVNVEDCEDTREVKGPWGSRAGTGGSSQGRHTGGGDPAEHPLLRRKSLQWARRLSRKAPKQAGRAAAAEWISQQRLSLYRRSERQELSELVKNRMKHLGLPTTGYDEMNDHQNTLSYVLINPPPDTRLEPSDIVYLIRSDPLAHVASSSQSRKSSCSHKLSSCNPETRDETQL
MEASUREMENT NOTES: Whole-cell automated patch-clamp (APC) in CHO cells stably expressing WT hSLACK
Assay type: cell-based
COND: whole-cell APC, CHO cells stably expressing WT hSLACK, averages n ≥ 3; read-out: SLACK IC50
pIC50: −log10 of the molar value.

COMPOUND: CN(Cc1ccccc1)c1nc2c(c(=O)n(Cc3ccc(C(F)(F)F)cc3)c(=O)n2C)n1C
pIC50: 5.01
//
COMPOUND: CN(Cc1ccccc1)c1nc2c(c(=O)n(Cc3ccccc3Cl)c(=O)n2C)n1C
pIC50: 5.70
//
COMPOUND: Cn1c(N(Cc2ccccc2)Cc2ccccc2)nc2c1c(=O)n(Cc1ccccc1)c(=O)n2C
pIC50: 5.85
//
COMPOUND: Cn1c(NCc2ccccc2)nc2c1c(=O)n(Cc1ccccc1)c(=O)n2C [Analog 46a]
pIC50: 5.22
